# assayed-target: human SGLT2 (Homo sapiens, UniProt P31639)
# Sequence (P31639 whole entry): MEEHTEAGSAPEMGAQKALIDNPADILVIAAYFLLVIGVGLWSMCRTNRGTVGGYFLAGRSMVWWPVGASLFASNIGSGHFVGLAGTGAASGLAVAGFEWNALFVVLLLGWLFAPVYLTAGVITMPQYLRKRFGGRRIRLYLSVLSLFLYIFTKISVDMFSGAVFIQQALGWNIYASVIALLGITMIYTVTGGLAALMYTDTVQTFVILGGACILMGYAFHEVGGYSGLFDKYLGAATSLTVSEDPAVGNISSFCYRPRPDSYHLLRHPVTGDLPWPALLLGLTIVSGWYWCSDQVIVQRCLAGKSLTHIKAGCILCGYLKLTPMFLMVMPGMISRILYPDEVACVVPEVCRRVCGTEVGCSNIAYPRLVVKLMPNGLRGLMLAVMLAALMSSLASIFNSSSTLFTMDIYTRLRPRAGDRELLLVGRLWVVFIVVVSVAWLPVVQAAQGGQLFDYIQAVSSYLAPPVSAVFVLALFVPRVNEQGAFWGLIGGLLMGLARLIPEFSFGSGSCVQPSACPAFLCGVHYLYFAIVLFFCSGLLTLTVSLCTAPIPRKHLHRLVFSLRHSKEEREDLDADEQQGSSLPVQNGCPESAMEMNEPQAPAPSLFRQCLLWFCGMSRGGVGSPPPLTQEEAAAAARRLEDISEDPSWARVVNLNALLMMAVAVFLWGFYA
# method: Inhibition of methyl-α-D-glucopyranoside (α-MG) uptake in COS-7 cells expressing human SGLT2
# protocol-conditions: COS-7 cells transiently expressing human SGLT2; 1 mM 14C-α-MG uptake, 37° C., 1 hour
quantity-measured: IC50 (nM)

P = OC[C@H]1O[C@@H](Oc2cccc3ccn(CCc4ccc(O)cc4)c23)[C@H](O)[C@@H](O)[C@@H]1O
Q = OC[C@H]1O[C@@H](Oc2cccc3ccn(CCc4ccccc4)c23)[C@H](O)[C@@H](O)[C@@H]1O
Req: // compare measured IC50 between P and Q ; output the lower one Mark your answer with the label of the selected entry.
Resp: P
